Hello, the source for this data is PubChem BioAssay (NCI), in case you need it.

System: SNB-75 CNS
Assay: NCI tumour cell line growth inhibition, 48 h
Would you kindly list TGI for each of these compounds?

Report TGI, nothing else, for this compound: O=C1C(c2c(O)[nH]c3ccc(S(=O)(=O)O)cc23)=Nc2ccccc21
> 100 µM

Report TGI, nothing else, for this compound: COc1ccccc1NC(=O)CC(=O)N1N=C(C)C(N=Nc2ccc(S(N)(=O)=O)cc2)C1=O (stereo not given)
> 100 µM

Report TGI, nothing else, for this compound: CCC[C@H]1C(=O)N=C(N)N1C(=O)OCc1ccccc1
> 100 µM

Report TGI, nothing else, for this compound: N#Cc1nc(-c2cc([N+](=O)[O-])cc([N+](=O)[O-])c2)oc1N
> 10 µM

Report TGI, nothing else, for this compound: CN(C)c1ccc(-c2c(C#N)c(S)n(NS(=O)(=O)c3ccccc3)c(=O)c2C#N)cc1
> 100 µM

Report TGI, nothing else, for this compound: Cc1ccc(S(=O)(=O)Oc2cc(N)c3c(n2)CCC3)cc1
> 100 µM

Report TGI, nothing else, for this compound: C/C(=C\c1ccccc1)C(=O)CCN1CCOCC1
> 66.1 µM

Report TGI, nothing else, for this compound: COC(=O)[C@H](Cc1cn(C)cn1)NC(=O)[C@H](Cc1c[nH]c2ccccc12)NC(=O)Nc1cc(C(F)(F)F)cc(C(F)(F)F)c1
> 10 µM

Report TGI, nothing else, for this compound: CC(=O)N/N=C1/NN(C(C)=O)C2(S1)C(=O)Nc1ccc(Br)cc12 (stereo not given)
> 100 µM

Report TGI, nothing else, for this compound: CC/C=C\C=C/C(=O)N/C=C/CC1Cc2cccc(O)c2C(=O)O1 (stereo not given)
> 100 µM

----------
Tested on: SF-539 CNS
Assay: NCI tumour cell line growth inhibition, 48 h
Readout label: TGI

Give measured TGI for C=C(Cl)/C(=C\Cl)CCC(Br)C(C)C (stereo not drawn) (SF-539 CNS).
> 100 µM

Give measured TGI for O=c1c2c([nH]c3cc4c(cc13)OCO4)-c1ccccc1CC2 (SF-539 CNS).
> 100 µM

Give measured TGI for Oc1ccc(-c2nnc3sc(-c4ccc(F)cc4)nn23)cc1 (SF-539 CNS).
> 100 µM

----------
Would you kindly list TGI for each of these molecules?
Tested on: BT-549 breast
Assay: NCI tumour cell line growth inhibition, 48 h
Give a bare numeral; the unit µM is implied.

Report TGI, nothing else, for this molecule: O=c1cc(/C=C/c2ccc(O)c(O)c2)oc(/C=C/c2ccc(O)c(O)c2)c1
15.2

Report TGI, nothing else, for this molecule: COc1ccc2nc3cc([N+](=O)[O-])ccc3c(NCCCCCN(C)C)c2c1
3.55

Report TGI, nothing else, for this molecule: CCN1C(=O)N(CC)C2C1NN=c1s/c(=C\c3cccnc3)c(=O)n12 (stereo not given)
19.9

Report TGI, nothing else, for this molecule: CC(=O)OC(C)c1cc2c(s1)C(=O)c1sccc1C2=O (stereo not given)
1.68

----------
Tested on: OVCAR-3 ovarian
Test: NCI tumour cell line growth inhibition, 48 h
Readout label: TGI (µM)
Give a bare numeral; the unit µM is implied.

Report TGI, nothing else, for this molecule: C=CCC1([C@H](C)[C@@H](OC(C)=O)c2cc(OC)c(OC)c(OC)c2)C[C@@H](OC)CCC1=O (stereo partly drawn)
50.5

Report TGI, nothing else, for this molecule: N#Cc1cnc2cc(OC[C@H](O)CO)c(NC(=O)CC3CSSC3)cc2c1Nc1ccc(OCc2cccc(F)c2)c(Cl)c1
1.24

Report TGI, nothing else, for this molecule: Cc1occc1C(=S)Nc1ccc(Cl)c(COC(C)(C)C)c1
30

Report TGI, nothing else, for this molecule: COc1cc(Cl)cc(-c2nn(C(=O)NCCN3CCOCC3)cc2-c2ccncc2)c1
7.11
